The values you see were collected from patent EP0286316A1.

In this section we review reported I-CHLQ values for a set of molecules.
System: Plasmodium falciparum chloroquine-resistant clone: Indochina-W2 (IndCh-W2)
Protocol Details: in vitro anti-malarial activity, semiautomated microdilution technique, chloroquine-resistant clone
Type: cell-based
Condition Notes: index of activity (IC50) relative to chloroquine under the same conditions
Assay Metric: I-CHLQ

[[record]]
molecule = "CC1(C)OO[C@]2(c3ccccc3)C=C(c3ccccc3)[C@@H](OC(=O)c3ccccc3F)[C@@H]2O1 [Compound 7]"
assay_metric = "I-CHLQ"
reported_result = 1.6

[[record]]
molecule = "C1=C(c2ccccc2)C[C@@]2(c3ccccc3)OOC3(CCCCC3)O[C@@H]12 [Compound 5]"
assay_metric = "I-CHLQ"
reported_result = 1.5

[[record]]
molecule = "OO[C@@H]1C(c2ccccc2)=C[C@@]2(c3ccccc3)OOC3(CCCCC3)O[C@@H]12 [Compound 13]"
assay_metric = "I-CHLQ"
reported_result = 33.9

[[record]]
molecule = "CC(C)OC(=O)O[C@@H]1C(c2ccccc2)=C[C@@]2(c3ccccc3)OOC(C)(C)O[C@@H]12 [Compound 8]"
assay_metric = "I-CHLQ"
reported_result = 4.2

